Entry source: the supplement of paper PMC10567573

B1: KCNG1 (parent)
chain: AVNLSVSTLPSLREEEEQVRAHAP

Variants of: B1
Assay: protein stability index of a GFP-peptide fusion (GPS, HEK-293T) (PSI 1-6); higher = more stable;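 note: lentivirally expressed fusions sorted by FACS into six bins by GFP to DsRed ratio, PSI derived from sequencing read proportions per bin multiplied by bin number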
Conditions: c terminus: a fixed tail appended
Use Condition met when the recorded protein stability index is no lower than 5; use Condition not met when it is lower.

mutation_name=L9I class_assignment="Condition not met"
mutation_name=V6D class_assignment="Condition met"
mutation_name=P10F class_assignment="Condition not met"
mutation_name=N3I class_assignment="Condition not met"
mutation_name=T8C class_assignment="Condition not met"
mutation_name=L9C class_assignment="Condition not met"
mutation_name=P24F class_assignment="Condition not met"
mutation_name=E15W class_assignment="Condition not met"
mutation_name=T8S class_assignment="Condition not met"
mutation_name=V2W class_assignment="Condition not met"
mutation_name=L12D class_assignment="Condition met"
mutation_name=P10L class_assignment="Condition not met"
mutation_name=A23N class_assignment="Condition met"
mutation_name=V6E class_assignment="Condition met"
mutation_name=E17Y class_assignment="Condition not met"
mutation_name=Q18A class_assignment="Condition not met"
